Data origin: patent US10894797B2

Listed below: pIC50 values for each entry.
Molecular target: SHP2 (Homo sapiens (Human))
Sequence (Q06124 whole entry): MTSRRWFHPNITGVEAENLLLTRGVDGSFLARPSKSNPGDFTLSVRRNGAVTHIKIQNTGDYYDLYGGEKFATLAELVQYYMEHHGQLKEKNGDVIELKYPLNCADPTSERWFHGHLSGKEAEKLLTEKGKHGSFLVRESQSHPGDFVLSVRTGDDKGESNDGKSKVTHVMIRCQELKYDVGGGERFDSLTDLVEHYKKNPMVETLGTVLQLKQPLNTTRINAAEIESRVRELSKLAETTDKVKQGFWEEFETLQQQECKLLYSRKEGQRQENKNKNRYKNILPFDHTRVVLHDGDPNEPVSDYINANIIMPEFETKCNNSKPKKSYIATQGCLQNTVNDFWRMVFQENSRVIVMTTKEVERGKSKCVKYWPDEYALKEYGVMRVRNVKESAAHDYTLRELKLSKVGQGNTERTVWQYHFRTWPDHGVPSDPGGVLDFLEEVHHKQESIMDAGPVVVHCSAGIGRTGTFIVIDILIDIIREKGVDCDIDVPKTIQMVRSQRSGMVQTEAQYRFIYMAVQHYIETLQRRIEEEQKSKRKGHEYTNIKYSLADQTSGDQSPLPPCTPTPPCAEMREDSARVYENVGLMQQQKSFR
Test: SHP2 allosteric inhibition assay (DiFMUP substrate, bisphos-IRS1 peptide activation)
Details: 0.33 nM SHP2, 0.5 μM bisphos-IRS1 peptide, 100 uM DiFMUP, room temperature
pIC50: −log10 of the molar value.
measure name: pIC50

chemical structure: C[C@@H]1OCC2(CCN(c3ncc(Sc4ccnc5c4OC[C@@H]4CC6(CC6)CN54)nc3CO)CC2)[C@@H]1N
measured on: SHP2 (Homo sapiens (Human))
result: 8.70
--
chemical structure: C[C@@H]1OCC2(CCN(c3ncc(Sc4ccnc5c4OC[C@@H]4C[C@@H](OC(N)=O)CN54)nc3CO)CC2)[C@@H]1N
measured on: SHP2 (Homo sapiens (Human))
result: 8.10
--
chemical structure: COC[C@H]1C[C@H]2COc3c(Sc4cnc(N5CCC6(CC5)COC5(CCC5)[C@H]6N)c(CO)n4)ccnc3N2C1
measured on: SHP2 (Homo sapiens (Human))
result: 8.24
